All figures here come from PubChem BioAssay (NCATS).

Test: qHTS assay for small molecule agonists of the antioxidant response element (ARE) signaling pathway measured by Nrf2-dependant transcriptional activity (AID 720636);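 note: HepG2 cells with an ARE-driven luciferase reporter; % of control where 0% means no effect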
Conditions: ARE-luc HepG2, Nrf2 luciferase reporter, 16 h; series mostly up to 92.4 µM
Source text: National Center for Advancing Translational Sciences [NCATS] NIH Chemical Genomics Center [NCGC] U.S. Environmental Protection Agency [EPA] National Institutes of Environmental Health Sciences [NIEHS] National Toxicology Program [NTP] Assay Overview: The antioxidant response element (ARE) signaling pathway plays an important role in the cellular anti-oxidant defense. […]
Inconclusive results are not listed. Activity calls are given as the source filed them. Calls come from the whole dose curve; as a rule, active = well fitted activation curve with a large enough effect in the repeat runs; inconclusive = weak or mixed curves; inactive = flat fitted curve, though single readings scatter.
Hi there, use one of these labels in your reply, thanks! yes (1) (active), no (0) (inactive)

Before answering, review these 6 worked examples.
>>> assigned_label("Nc1ccc(-c2ccc(N)c(O)c2)cc1O")
"no (0)"
>>> assigned_label("C=CC(=O)OCCCCCCOC(=O)C=C")
"no (0)"
>>> assigned_label("CC(=O)Nc1cccc(C)c1")
"no (0)"
>>> assigned_label("CCCCCCCC/C=C\\CCCCCCCC(=O)N(CCO)CCO")
"no (0)"
>>> assigned_label("Nc1cnn([C@@H]2O[C@H](CO)[C@@H](O)[C@H]2O)c(=O)n1")
"no (0)"
>>> assigned_label("Cc1cccnc1")
"no (0)"

Next, consider the following compound.
-- ask Hi, do you know how Oc1ccc2c(c1)OCO2 came out in this test?
-- reply no (0)

====

Target: Glucocorticoid receptor (Homo sapiens)
Test: GR-EFC Redistribution (AID 451); note: potency is the fitted concentration of half-maximal effect
Details: CHO-K1 GR-EFC translocation, beta-gal luminescence, 2 h
The source made the active and inactive calls. The call rests on the fitted dose curve.
Measure: Potency

Recorded Potency, per entry:
>>> result("C=C(C)[C@@H]1CC=C(C(=O)O)CC1")
"> 46 µM (inactive)"
>>> result("CC(C)CCNc1ncnc2[nH]ncc12")
"> 9.22 µM (inactive)"
>>> result("CC(C)(CCc1nc2ccccc2[nH]1)C(=O)O")
"> 9.22 µM (inactive)"
>>> result("CNC(=O)[C@@H]1O[C@@H](n2cnc3c(N)ncnc32)[C@@H](O)[C@H]1O")
"> 46 µM (inactive)"
>>> result("O=C(O)CCCC[C@H]1CCSS1")
"> 46 µM (inactive)"
>>> result("Cn1c(=S)c2[nH]c(SCc3cccnc3)nc2n(C)c1=O")
"> 9.22 µM (inactive)"
>>> result("CN1CCCC[C@@H]1CCN1CCCCC1")
"> 9.22 µM (inactive)"
>>> result("COc1cc(CN2CCCCC2)cc2cc(C(=O)O)c(=O)oc12")
"> 9.22 µM (inactive)"
>>> result("Cc1cc2c(SCc3ccccc3Cl)nc(N)nc2nc1C")
"> 9.22 µM (inactive)"
>>> result("Nc1nc(SCc2ccccc2Cl)cc(C(=O)O)n1")
"> 9.22 µM (inactive)"

-- ask // Potency lookup, key: O=C(O)CCCCn1ccc(=O)[nH]c1=O
-- reply > 9.22 µM (inactive)

-- ask // Potency lookup, key: CN(C)Cc1cc(Cl)c(O)c(CN(C)C)c1
-- reply > 9.22 µM (inactive)

-- ask // Potency lookup, key: NC1(C(=O)OCc2ccccc2)CCCC1
-- reply > 9.22 µM (inactive)

====

Target: Cytochrome P450 2C19 (Homo sapiens)
Experiment: qHTS Assay for Inhibitors and Substrates of Cytochrome P450 2C19 (AID 899); note: nearly all actives have a fitted effect of over 60% in size
Settings: recombinant CYP2C19, luciferin-H EGE luminescence; series mostly up to 11.4 µM
Records with an inconclusive call do not appear. Calls of active or inactive are those of the source. Calls follow the shape of the dose curve; as a rule, active = well fitted inhibition curve with a large enough effect; inconclusive = small, poorly fitted or top-dose-only effect; inactive = no such curve, though single readings can be large or run the other way.
Hi there, use one of these labels in your reply, thanks! 1 (yes) (active), 0 (no) (inactive)

Before answering, review these 6 worked examples.
>>> assigned_label("c1ccc2sc(SCSc3nc4ccccc4s3)nc2c1")
"1 (yes)"
>>> assigned_label("C[C@@H](C(=O)O)c1ccc(C[C@@H]2CCCC2=O)cc1")
"0 (no)"
>>> assigned_label("O=C(O)CC(CC(=O)O)n1cccc1")
"0 (no)"
>>> assigned_label("CC[C@@H]1CC(=O)N(SC[C@H](N)C(=O)O)C1=O")
"0 (no)"
>>> assigned_label("N=C(N)SCC(=O)O")
"0 (no)"
>>> assigned_label("COc1ccc2cc1Oc1ccc(cc1)C[C@H]1c3cc(c(OC)cc3CCN1C)Oc1c(OC)c(OC)cc3c1[C@@H](C2)N(C)CC3")
"0 (no)"

-- ask Hi, do you know how O=S1(=O)CCN(c2ccccc2CC(c2c[nH]c3ccccc23)c2c[nH]c3ccccc23)CC1 came out in this test?
-- reply 1 (yes)

-- ask Hi, do you know how C[C@H]1C[C@@H]2[C@H]3CCC4=CC(=O)C=C[C@@]4(C)[C@]3(Cl)[C@@H](Cl)C[C@]2(C)[C@]1(O)C(=O)COP(=O)(O)O came out in this test?
-- reply 0 (no)

-- ask Hi, do you know how Oc1ccc(Cl)cc1Cc1cc(Cl)cc(Cc2cc(Cl)ccc2O)c1O came out in this test?
-- reply 1 (yes)

-- ask Hi, do you know how O=C(O)CC1(CC(=O)O)Nc2ccccc2SC1=O came out in this test?
-- reply 0 (no)

-- ask Hi, do you know how Nc1nc(Cl)cc(NCCO)n1 came out in this test?
-- reply 0 (no)

-- ask Hi, do you know how N=C1C=CC(=C(c2ccc(N)cc2)c2ccc(N)cc2)C=C1 came out in this test?
-- reply 0 (no)

====

Biological target: Vitamin D3 receptor (Homo sapiens) (UniProt P11473)
Sequence (P11473 whole entry, looked up): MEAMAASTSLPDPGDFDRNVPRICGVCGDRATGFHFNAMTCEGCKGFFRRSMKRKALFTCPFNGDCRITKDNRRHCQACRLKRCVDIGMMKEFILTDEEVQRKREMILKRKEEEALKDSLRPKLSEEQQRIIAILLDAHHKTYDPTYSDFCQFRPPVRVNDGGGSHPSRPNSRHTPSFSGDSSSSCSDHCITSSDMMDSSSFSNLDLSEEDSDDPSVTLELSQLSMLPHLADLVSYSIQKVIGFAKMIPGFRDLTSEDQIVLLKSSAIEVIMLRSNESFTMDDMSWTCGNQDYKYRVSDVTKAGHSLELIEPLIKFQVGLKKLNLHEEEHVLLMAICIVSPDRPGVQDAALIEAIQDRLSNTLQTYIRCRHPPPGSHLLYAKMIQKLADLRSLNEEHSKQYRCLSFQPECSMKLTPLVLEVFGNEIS
Assay: qHTS assay for small molecule agonists of vitamin D receptor signaling (AID 588543)
Conditions: HEK293T VDR-UAS-bla, beta-lactamase ratio, 16 h; series mostly up to 76.8 µM
Results filed as inconclusive are left out. Active and inactive are the calls of the source. Calls follow the shape of the full dose curve.
Hi there, use one of these labels in your reply, thanks! Y (active), N (inactive)

>>> assigned_label("CC1=C(/C=C/C(C)=C/C=C/C(C)=C/C=O)C(C)(C)CCC1")
"N"
>>> assigned_label("C=Cc1cccc(C)c1")
"N"
>>> assigned_label("Clc1nc2ccccc2nc1Cl")
"N"
>>> assigned_label("Cc1ccccc1OCC1CO1 (stereo not drawn)")
"N"
>>> assigned_label("CC(=O)c1ccc(Cl)c(Cl)c1Cl")
"N"

-- ask Hi, do you know how CC(C)(C)C(=O)C1C(=O)c2ccccc2C1=O came out in this test?
-- reply N

-- ask Hi, do you know how O=C(O)c1ccc([N+](=O)[O-])cc1 came out in this test?
-- reply N

-- ask Hi, do you know how Cc1cccnc1 came out in this test?
-- reply N

-- ask Hi, do you know how O=[N+]([O-])c1cc(N(CCO)CCO)ccc1NCCO came out in this test?
-- reply N

-- ask Hi, do you know how O=[N+]([O-])c1ccc(F)cc1F came out in this test?
-- reply N

-- ask Hi, do you know how CCCCC(CC)COP(=O)(OCC(CC)CCCC)OCC(CC)CCCC (stereo not drawn) came out in this test?
-- reply N

-- ask Hi, do you know how Brc1ccc(-c2ccccc2)cc1 came out in this test?
-- reply N

-- ask Hi, do you know how CCN(CC)c1ccc2c(C)cc(=O)oc2c1 came out in this test?
-- reply Y

-- ask Hi, do you know how O=[N+]([O-])c1cccc(I)c1 came out in this test?
-- reply N

-- ask Hi, do you know how Oc1cc(Cl)cc(Cl)c1Cl came out in this test?
-- reply N

-- ask Hi, do you know how Nc1ccc(N)c(Cl)c1 came out in this test?
-- reply N

-- ask Hi, do you know how CCCCCCCC/C=C\CCCCCCCC(=O)N(CCO)CCO came out in this test?
-- reply N

-- ask Hi, do you know how CCCCOC(=O)COc1ccc(Cl)cc1Cl came out in this test?
-- reply N

====

Test: AP1 Signaling Pathway (AID 357);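 note: ME-180 reporter cells stimulated with EGF at its EC50 level; % is set by controls: 0 for no effect and ±100 for the full control effect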
Settings: ME-180 (cervical carcinoma) AP-1-bla reporter, EGF-induced, beta-lactamase ratio, 5 h; at 7.69 µM (top of the series) unless noted
Inconclusive results are not listed. Activity calls are given as the source filed them. Calls follow the shape of the dose curve; as a rule, active = well fitted curve in either direction with a large enough effect (not every such curve was filed as active); inconclusive = small, poorly fitted or top-dose-only effect, or another doubt; inactive = flat fitted curve, though single readings scatter.
Measure: activity change, negative = inhibition

>>> result("CC[C@@]1([N+](=O)[O-])C[C@H]2C=C[C@@H]1C2")
"9.4% (inactive)"
>>> result("O=C(O)CCNCC(=O)O")
"2.01% (inactive)"
>>> result("OC1CC2CC[C@H](C1)N2CCCN1c2ccccc2Sc2ccc(Cl)cc21 (stereo not given in full)")
"18.1% (inactive)"
>>> result("CN(C)Cc1ccc(C(C)(C)C)cc1-c1cc(C(C)(C)C)ccc1CN(C)C")
"-1.36% (inactive)"
>>> result("COC(=O)[C@](C)(N)Cc1ccc(O)cc1")
"9.7% [at 38 µM] (inactive)"

-- ask // activity change, negative = inhibition lookup, key: O[C@@H]1[C@@H](OCc2ccccc2)OC[C@H](O)[C@@H]1O
-- reply 17.3% (inactive)

-- ask // activity change, negative = inhibition lookup, key: OCCN(CO)CO
-- reply 6.19% (inactive)

-- ask // activity change, negative = inhibition lookup, key: Cc1ccc(C)c([C@@H]2NC(=O)c3ccccc3N2)c1
-- reply -2.78% (inactive)

-- ask // activity change, negative = inhibition lookup, key: OCCCNCc1ccncc1
-- reply -2.93% (inactive)

-- ask // activity change, negative = inhibition lookup, key: CC(C)(N)CO[C@H]1C[C@H]2CC[C@@]1(C)C2(C)C
-- reply 4.93% (inactive)

-- ask // activity change, negative = inhibition lookup, key: N=c1ccn2c(n1)O[C@H]1[C@@H](OP(=O)(O)O)[C@H](CO)O[C@H]12
-- reply 1.47% (inactive)

-- ask // activity change, negative = inhibition lookup, key: Cn1c(N)nc2c(nc(OCc3ccccc3)n2[C@@H]2O[C@H](CO)[C@@H](O)[C@@H]2O)c1=O
-- reply 2.38% (inactive)

-- ask // activity change, negative = inhibition lookup, key: CC(C)C(=O)Cc1ccc2ccccc2n1
-- reply -4.8% (inactive)

-- ask // activity change, negative = inhibition lookup, key: Cc1onc(-c2c(F)cccc2Cl)c1C(=O)N[C@@H]1C(=O)N2[C@H]1SC(C)(C)[C@H]2C(=O)O
-- reply -24% (inactive)

-- ask // activity change, negative = inhibition lookup, key: COc1ccc2nccc(SCC(=O)O)c2c1
-- reply 7.58% (inactive)

-- ask // activity change, negative = inhibition lookup, key: O=C(c1ccc([N+](=O)[O-])cc1)[C@@H](Br)[C@@H](Br)c1ccnc2ccccc12
-- reply -11.4% (inactive)

-- ask // activity change, negative = inhibition lookup, key: CN(C)Cc1ccccc1-c1ccc2ncnc(NC3CCNCC3)c2c1
-- reply 20.2% (inactive)

-- ask // activity change, negative = inhibition lookup, key: O=C(O)[C@@H]1[C@@H](C(=O)Nc2ccccc2)[C@@H]2C=C[C@@H]1O2
-- reply 3.5% (inactive)

-- ask // activity change, negative = inhibition lookup, key: C/C(=N\NC(N)=S)c1ccc[nH]1
-- reply 0.43% (inactive)

-- ask // activity change, negative = inhibition lookup, key: N#CCCn1c(=O)c(-c2ccccc2)nc2cnc(Oc3cccc(Cl)c3)nc21
-- reply -25.4% (inactive)

-- ask // activity change, negative = inhibition lookup, key: Oc1ccc(Cc2nccc3cc(O)c(O)cc23)cc1O
-- reply -6.37% (inactive)

-- ask // activity change, negative = inhibition lookup, key: O=C(O)c1ccc(C(=O)O)c(C(=O)Nc2ccc3c(c2)Cc2ccccc2-3)c1
-- reply 5.18% (inactive)

-- ask // activity change, negative = inhibition lookup, key: C[N+](C)(C)c1nc(N)nc2c1ncn2[C@H]1O[C@@H](CO)[C@@H](O)[C@H]1O
-- reply 6.27% (inactive)

-- ask // activity change, negative = inhibition lookup, key: C[N+](C)(C)CC(=O)N/N=C\c1ccncc1
-- reply -2.8% (inactive)

-- ask // activity change, negative = inhibition lookup, key: C[C@H]1CCCC2(CC[N+](C)(CCC[N+](C)(C)C)CC2)C1 (stereo not given in full)
-- reply 14.2% (inactive)

-- ask // activity change, negative = inhibition lookup, key: CC(C)[C@](N)(C(=O)O)c1ccccc1
-- reply -9.87% (inactive)
